# system_under_test: T1, human BR3 extracellular domain (human, UniProt Q96RJ3 1-61)
# T1 construct: biotinylated where used as tracer; also called hBR3-ECD; BR3-ECD
# experiment_notes: SPR, BR3 ECD on chip;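 also: Anti-BR3 antibodies passed over the chip at high flow in PBS with 0.05% polysorbate 20, on and off rates fitted together globally to a 1:1 binding model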
value_kind: Kd (nM)
Numbers only, in nM.

Query: Recorded Kd for Hu2.1-46 Fab (Fab, V domains shown, Fab) VH: EVQLVESGGGLVQPGGSLRLSCAASGDSITRGYWNWVRQAPGKGLEWVGYINYSGTTYYNPSLKSRFTISRDTSKNTFYLQMNSLRAEDTAVYYCANSNFYGAMDYWGQGTLVTVSS VL: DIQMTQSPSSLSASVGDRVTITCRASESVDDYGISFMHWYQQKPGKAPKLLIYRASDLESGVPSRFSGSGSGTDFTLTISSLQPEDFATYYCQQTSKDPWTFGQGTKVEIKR , please?
Reply: 0.27
